Target: rat mGlu3 (Rattus norvegicus (Rat), UniProt P31422)
Sequence (P31422 23-879): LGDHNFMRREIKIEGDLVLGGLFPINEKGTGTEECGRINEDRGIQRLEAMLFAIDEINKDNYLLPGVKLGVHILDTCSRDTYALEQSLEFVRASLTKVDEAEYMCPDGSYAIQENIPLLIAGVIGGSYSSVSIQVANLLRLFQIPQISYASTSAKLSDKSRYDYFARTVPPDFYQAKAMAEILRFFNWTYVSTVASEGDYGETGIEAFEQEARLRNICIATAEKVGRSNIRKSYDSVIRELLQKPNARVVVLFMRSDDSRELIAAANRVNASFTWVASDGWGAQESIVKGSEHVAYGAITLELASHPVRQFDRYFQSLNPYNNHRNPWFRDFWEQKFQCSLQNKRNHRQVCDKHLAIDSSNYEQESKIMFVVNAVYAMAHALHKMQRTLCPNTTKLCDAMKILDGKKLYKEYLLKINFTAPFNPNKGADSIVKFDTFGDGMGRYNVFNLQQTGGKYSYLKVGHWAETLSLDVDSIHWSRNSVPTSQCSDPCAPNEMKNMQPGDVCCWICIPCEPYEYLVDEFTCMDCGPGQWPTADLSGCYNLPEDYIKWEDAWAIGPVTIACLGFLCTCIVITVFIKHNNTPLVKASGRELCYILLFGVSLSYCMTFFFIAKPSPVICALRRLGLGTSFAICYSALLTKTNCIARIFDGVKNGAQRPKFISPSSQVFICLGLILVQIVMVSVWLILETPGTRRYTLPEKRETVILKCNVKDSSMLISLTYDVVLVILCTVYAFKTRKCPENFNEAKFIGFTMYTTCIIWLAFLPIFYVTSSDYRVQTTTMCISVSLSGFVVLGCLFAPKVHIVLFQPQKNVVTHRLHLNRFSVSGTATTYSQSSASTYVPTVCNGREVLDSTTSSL
Test: mGlu3 Ca2+ flux assay
Assay type: cell-based
Settings: amplitude of response at 30 μM test compound as % of maximal response to glutamate; read-out: rat mGlu3 Glu max (%)
Assay Readout: remaining activity at 30 µM (%)
Answers are plain numbers, in %.

Consider the reported remaining activity at 30 µM for these compounds:
{"columns": ["Smiles Representation", "Unit Spec", "Quantitative Readout"],
 "data": [
  ["O=C1c2cc(CNc3ccccc3Cl)nn2CCN1c1ccc(F)cc1", "%", 2.08],
  ["O=C1c2cc(CNc3ccc(OC(F)(F)F)cc3)nn2CCN1c1ccc(F)cc1", "%", 13.3],
  ["Cc1ccc(NCc2cc3n(n2)CCN(c2ccc(F)cc2)C3=O)nc1", "%", 0.86],
  ["CN(Cc1cc2n(n1)CCN(c1ccc(F)cc1)C2=O)c1ccc(F)cc1", "%", 1.29],
  ["N#Cc1ccc(NCc2cc3n(n2)CCN(c2ccc(F)cc2)C3=O)cc1", "%", 1.71]
]}

Parameters: items (list). Returns: remaining activity at 30 µM for each item.
1. Cc1ccccc1NCc1cc2n(n1)[C@H](C)CN(c1ccc(F)cc1)C2=O
2. C[C@H]1CN(c2ccc(F)cc2)C(=O)c2cc(CNc3ccc(F)c(F)c3)nn21
3. Cc1ccc(NCc2cc3n(n2)CCN(c2ccc(F)cc2)C3=O)cc1
4. COc1ccc(N(C)Cc2cc3n(n2)CCN(c2ccc(OC)cc2)C3=O)cc1

1: -0.26; 2: 1.23; 3: -11.8; 4: 1.7

Value sought for every listed compound: remaining activity at 30 µM.
1. O=C1c2cc(CNc3ccc(OC(F)F)cc3F)nn2CCN1c1cccc(F)n1
2. C[C@H]1CN(c2ccc(F)cc2)C(=O)c2cc(CNc3ccccc3)nn21

1: 2.05; 2: -2.27

Provide remaining activity at 30 µM values for the following items, in order.
1. COc1ccc(N(C)Cc2cc3n(n2)CCN(c2ccccc2Cl)C3=O)cc1
2. O=C1c2cc(CNc3ccc(OC(F)F)cc3F)nn2CCN1c1cccc(Cl)c1
3. COc1ccc(N(C)Cc2cc3n(n2)CCN(c2ccc(C)cc2)C3=O)cc1
4. O=C1c2cc(CNc3cc(Cl)ccn3)nn2CCN1c1ccc(F)cc1
5. O=C1c2cc(CNc3cccc(F)c3)nn2CCN1c1ccc(F)cc1

[1.8, 2.97, 1.2, 2.99, 1.28]

Give me remaining activity at 30 µM for each of these compounds, listed below.
1. C[C@@H]1CN(c2ccc(F)cc2)C(=O)c2cc(CNc3c(F)cccc3F)nn21
2. COc1ccc(N(C)Cc2cc3n(n2)CCN(c2cc(F)ccc2F)C3=O)cc1

[4.1, 0.79]

---

Target: rat mGlu5 (Rattus norvegicus (Rat))
Test: mGlu5 Ca2+ flux assay
Assay type: cell-based
Conditions: PAM; amplitude of response at 30 μM test compound as % of maximal response to glutamate; read-out: rat mGlu5 Glu max (%)
Give Emax at 30 µM for every item shown.
Answers are plain numbers, in %.

{"columns": ["Smiles Representation", "Unit Spec", "Emax at 30 µM"],
 "data": [
  ["C[C@H]1CN(c2ccc(F)cc2)C(=O)c2cc(CNc3ccccc3)nn21", "%", 81.7],
  ["O=C1c2cc(CNc3ccc(OC(F)F)cc3F)nn2CCN1c1cccc(F)c1", "%", 31.1],
  ["Cc1ccccc1NCc1cc2n(n1)[C@H](C)CN(c1ccc(F)cc1)C2=O", "%", 23.9],
  ["O=C1c2cc(CNc3ccccc3)nn2CCN1c1ccc(F)cc1", "%", 98.3],
  ["O=C1c2cc(CNc3ccc(OC(F)F)cc3F)nn2CCN1c1ccc(F)cc1", "%", 38.4]
]}

I have 8 compounds here; please give me Emax at 30 µM for each one.
1. CN(Cc1cc2n(n1)CCN(c1ccc(F)cc1)C2=O)c1cccc(Cl)c1
2. C[C@H]1CN(c2ccc(F)cc2)C(=O)c2cc(CNc3ccc(F)c(F)c3)nn21
3. CN(Cc1cc2n(n1)CCN(c1ccc(F)cc1)C2=O)c1cc(F)cc(F)c1
4. O=C1c2cc(CNc3ccc(F)cc3)nn2CCN1c1ccc(F)cc1
5. Cc1cccc(NCc2cc3n(n2)[C@@H](C)CN(c2ccc(F)cc2)C3=O)c1
6. Cc1cccc(NCc2cc3n(n2)CCN(c2ccc(F)cc2)C3=O)c1
7. C[C@H]1CN(c2ccc(F)cc2)C(=O)c2cc(CNc3cccc(F)c3)nn21
8. Cc1ccccc1NCc1cc2n(n1)[C@@H](C)CN(c1ccc(F)cc1)C2=O

1. 41.9
2. 61.6
3. 29.9
4. 56.6
5. 86.2
6. 79.4
7. 78.3
8. 37.1

---

Molecular target: rat mGlu5 (Rattus norvegicus (Rat), UniProt P31424)
Sequence (P31424 21-1203): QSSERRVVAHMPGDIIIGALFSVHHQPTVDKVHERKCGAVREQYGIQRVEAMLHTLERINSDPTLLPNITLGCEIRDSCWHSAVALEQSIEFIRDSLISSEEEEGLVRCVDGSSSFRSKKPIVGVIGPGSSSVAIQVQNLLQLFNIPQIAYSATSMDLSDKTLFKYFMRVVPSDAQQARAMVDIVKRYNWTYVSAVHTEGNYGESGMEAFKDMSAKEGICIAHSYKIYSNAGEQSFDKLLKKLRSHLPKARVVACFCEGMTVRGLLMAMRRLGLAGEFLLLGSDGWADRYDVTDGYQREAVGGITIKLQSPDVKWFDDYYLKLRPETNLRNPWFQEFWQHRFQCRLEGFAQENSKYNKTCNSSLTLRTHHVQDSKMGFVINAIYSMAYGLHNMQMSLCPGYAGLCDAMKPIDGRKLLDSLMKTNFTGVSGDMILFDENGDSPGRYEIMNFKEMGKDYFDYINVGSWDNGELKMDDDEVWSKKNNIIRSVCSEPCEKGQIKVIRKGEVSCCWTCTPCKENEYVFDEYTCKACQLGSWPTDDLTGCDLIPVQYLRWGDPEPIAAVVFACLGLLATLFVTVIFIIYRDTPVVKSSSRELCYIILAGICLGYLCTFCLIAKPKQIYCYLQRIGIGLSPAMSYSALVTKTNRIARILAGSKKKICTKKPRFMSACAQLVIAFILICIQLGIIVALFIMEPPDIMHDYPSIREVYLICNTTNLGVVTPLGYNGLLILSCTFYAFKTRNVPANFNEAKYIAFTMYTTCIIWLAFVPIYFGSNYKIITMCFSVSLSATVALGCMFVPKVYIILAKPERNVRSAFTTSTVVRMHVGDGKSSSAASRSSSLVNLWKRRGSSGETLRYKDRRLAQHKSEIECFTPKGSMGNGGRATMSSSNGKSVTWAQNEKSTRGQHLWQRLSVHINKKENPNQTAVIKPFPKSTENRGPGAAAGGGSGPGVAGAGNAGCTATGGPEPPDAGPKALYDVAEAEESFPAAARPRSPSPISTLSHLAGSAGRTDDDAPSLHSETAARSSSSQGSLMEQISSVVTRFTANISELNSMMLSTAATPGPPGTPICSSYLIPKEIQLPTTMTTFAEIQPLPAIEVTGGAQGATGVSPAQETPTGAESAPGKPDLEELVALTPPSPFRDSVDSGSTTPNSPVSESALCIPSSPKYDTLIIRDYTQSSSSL
Experiment: mGlu5 Ca2+ flux assay
Format: cell-based
Details: PAM; amplitude of response at 30 μM test compound as % of maximal response to glutamate; read-out: rat mGlu5 Glu max (%)
Assay Readout: Emax at 30 µM (%)
One number for each entry, in %.

Consider the following illustrative entries.
{"columns": ["Smiles Representation", "Measured On", "Emax at 30 µM (%)"],
 "data": [
  ["C[C@@H]1CN(c2ccc(F)cc2)C(=O)c2cc(CNc3c(F)cc(F)cc3F)nn21", "rat mGlu5 (Rattus norvegicus (Rat), UniProt P31424)", 40],
  ["C[C@H]1CN(c2ccc(F)cc2)C(=O)c2cc(CNc3cc(F)ccc3F)nn21", "rat mGlu5 (Rattus norvegicus (Rat), UniProt P31424)", 76.6],
  ["C[C@H]1CN(c2ccc(F)cc2)C(=O)c2cc(CNc3cc(F)cc(F)c3)nn21", "rat mGlu5 (Rattus norvegicus (Rat), UniProt P31424)", 59.3]
]}

Required: Emax at 30 µM, one value per molecule below.
1. O=C1c2cc(CNc3cccc(C(F)(F)F)n3)nn2CCN1c1ccc(F)cc1
2. O=C1c2cc(CNc3ccc(F)c(F)c3)nn2CCN1c1ccc(F)cc1
3. O=C1c2cc(CNc3cccc(OC(F)F)c3)nn2CCN1c1ccc(F)cc1
4. O=C1c2cc(CNc3ccc4c(c3)OC(F)(F)O4)nn2CCN1c1ccc(F)cc1
5. O=C1c2cc(CNc3cc(Cl)ccn3)nn2CCN1c1ccc(F)cc1
6. O=C1c2cc(CNc3cc(F)ccc3F)nn2CCN1c1ccc(F)cc1

1: 50.6; 2: 75.8; 3: 85.6; 4: 75.7; 5: 35.3; 6: 87.5

---

Biological target: rat mGlu5 (Rattus norvegicus (Rat), UniProt P31424)
Test: mGlu5 Ca2+ flux assay
Format: cell-based
Conditions: PAM; amplitude of response at 30 μM test compound as % of maximal response to glutamate; read-out: rat mGlu5 Glu max (%)
Experimental: The cells were grown overnight at 37° C. in the presence of 5% CO2. […] Dye was removed, 20 μL of assay buffer was added, and the plate was incubated for 5 minutes at room temperature. Ca^2+ flux was measured using the Functional Drug Screening System (FDSS7000, Hamamatsu, Japan). […] Calcium fluorescence measures were recorded as fold over basal fluorescence; raw data was then normalized to the maximal response to glutamate. […]
Decision: Emax at 30 µM >= 50% yields criterion met, all other cases yield criterion not met.

Answered cases to consult:
{"columns": ["Smiles Representation", "Measured On", "Class Label"],
 "data": [
  ["C[C@@H]1CN(c2ccc(F)cc2)C(=O)c2cc(CNc3cccc(F)c3)nn21", "rat mGlu5 (Rattus norvegicus (Rat), UniProt P31424)", "criterion not met"],
  ["O=C1c2cc(CNc3ccc(F)cc3F)nn2CCN1c1ccc(F)cc1", "rat mGlu5 (Rattus norvegicus (Rat), UniProt P31424)", "criterion met"],
  ["C[C@@H]1CN(c2ccc(F)cc2)C(=O)c2cc(CNc3ccccc3F)nn21", "rat mGlu5 (Rattus norvegicus (Rat), UniProt P31424)", "criterion met"],
  ["O=C1c2cc(CNc3cc(F)cc(F)c3)nn2CCN1c1ccc(F)cc1", "rat mGlu5 (Rattus norvegicus (Rat), UniProt P31424)", "criterion met"],
  ["C[C@H]1CN(c2ccc(F)cc2)C(=O)c2cc(CNc3cccc(OC(F)F)c3)nn21", "rat mGlu5 (Rattus norvegicus (Rat), UniProt P31424)", "criterion not met"]
]}

In the following, a different molecule is considered.
Hello, I need to know if O=C1c2cc(CNc3ccccc3F)nn2CCN1c1ccc(F)cc1 has measured Emax at 30 µM not below 50%. Thanks!
criterion met

---

Target: rat mGlu5 (Rattus norvegicus (Rat), UniProt P31424)
Experiment: mGlu5 Ca2+ flux assay
Assay type: cell-based
Details: read-out: rat mGlu5 EC50 or IC50
Procedure: The cells were grown overnight at 37° C. in the presence of 5% CO2. […] Dye was removed, 20 μL of assay buffer was added, and the plate was incubated for 5 minutes at room temperature. Ca^2+ flux was measured using the Functional Drug Screening System (FDSS7000, Hamamatsu, Japan). […] Calcium fluorescence measures were recorded as fold over basal fluorescence; raw data was then normalized to the maximal response to glutamate. […]
Provide the reported EC50 of each item.

Recorded results for 3 compounds are shown here.
{"columns": ["Smiles Representation", "EC50"],
 "data": [
  ["Cc1ccc(N2CCn3nc(CNc4ccc(OC(F)F)cc4F)cc3C2=O)nc1", "> 30 µM"],
  ["C[C@@H]1CN(c2ccc(F)cc2)C(=O)c2cc(CNc3cc(F)ccc3F)nn21", "> 10 µM"],
  ["CN(Cc1cc2n(n1)CCN(c1ccc(F)cc1)C2=O)c1ccc(Cl)cc1", "4.5 µM"]
]}

With those in mind, consider the next compound.
In one line, give reported EC50 of the entry O=C1c2cc(CNc3ccc(OC(F)F)cc3F)nn2CCN1c1ccc(F)cc1 .
> 10 µM
